- Tested on: Saccharomyces cerevisiae BY4741 SeMeCo community
- METHOD NOTES: z-score of subpopulation abundance vs DMSO median, subpopulation auxotrophic for LM; higher = larger share of this subpopulation than in DMSO controls
- APPLIED CONDITIONS: 10 µM; 24 h; SM minimal medium; subpopulation (auxotrophy): LM
I'd be grateful if you could share measured z-score of subpopulation abundance for these entries.

Hi there! I need z-score of subpopulation abundance for each item below, if you can.
1. CC(C)[N+](C)(CCOC(=O)C1c2ccccc2Oc2ccccc21)C(C)C [Propantheline bromide]
2. Cc1onc(-c2ccccc2Cl)c1C(=O)N[C@@H]1C(=O)N2[C@@H]1SC(C)(C)[C@@H]2C(=O)O [Cloxacillin Sodium]
3. C/C(=C\C(=O)OCCCCCCCCC(=O)O)C[C@@H]1OC[C@H](C[C@@H]2O[C@H]2[C@@H](C)[C@H](C)O)[C@@H](O)[C@H]1O

1: -0.04; 2: 0.63; 3: -0.21
